Provide the recorded inhibition at 10 µM for the entries that follow.
ASSAY_TARGET: NKCC1 (Homo sapiens, UniProt P55011)
Construct: host or cells: HEK293
Sequence (P55011 1-1212): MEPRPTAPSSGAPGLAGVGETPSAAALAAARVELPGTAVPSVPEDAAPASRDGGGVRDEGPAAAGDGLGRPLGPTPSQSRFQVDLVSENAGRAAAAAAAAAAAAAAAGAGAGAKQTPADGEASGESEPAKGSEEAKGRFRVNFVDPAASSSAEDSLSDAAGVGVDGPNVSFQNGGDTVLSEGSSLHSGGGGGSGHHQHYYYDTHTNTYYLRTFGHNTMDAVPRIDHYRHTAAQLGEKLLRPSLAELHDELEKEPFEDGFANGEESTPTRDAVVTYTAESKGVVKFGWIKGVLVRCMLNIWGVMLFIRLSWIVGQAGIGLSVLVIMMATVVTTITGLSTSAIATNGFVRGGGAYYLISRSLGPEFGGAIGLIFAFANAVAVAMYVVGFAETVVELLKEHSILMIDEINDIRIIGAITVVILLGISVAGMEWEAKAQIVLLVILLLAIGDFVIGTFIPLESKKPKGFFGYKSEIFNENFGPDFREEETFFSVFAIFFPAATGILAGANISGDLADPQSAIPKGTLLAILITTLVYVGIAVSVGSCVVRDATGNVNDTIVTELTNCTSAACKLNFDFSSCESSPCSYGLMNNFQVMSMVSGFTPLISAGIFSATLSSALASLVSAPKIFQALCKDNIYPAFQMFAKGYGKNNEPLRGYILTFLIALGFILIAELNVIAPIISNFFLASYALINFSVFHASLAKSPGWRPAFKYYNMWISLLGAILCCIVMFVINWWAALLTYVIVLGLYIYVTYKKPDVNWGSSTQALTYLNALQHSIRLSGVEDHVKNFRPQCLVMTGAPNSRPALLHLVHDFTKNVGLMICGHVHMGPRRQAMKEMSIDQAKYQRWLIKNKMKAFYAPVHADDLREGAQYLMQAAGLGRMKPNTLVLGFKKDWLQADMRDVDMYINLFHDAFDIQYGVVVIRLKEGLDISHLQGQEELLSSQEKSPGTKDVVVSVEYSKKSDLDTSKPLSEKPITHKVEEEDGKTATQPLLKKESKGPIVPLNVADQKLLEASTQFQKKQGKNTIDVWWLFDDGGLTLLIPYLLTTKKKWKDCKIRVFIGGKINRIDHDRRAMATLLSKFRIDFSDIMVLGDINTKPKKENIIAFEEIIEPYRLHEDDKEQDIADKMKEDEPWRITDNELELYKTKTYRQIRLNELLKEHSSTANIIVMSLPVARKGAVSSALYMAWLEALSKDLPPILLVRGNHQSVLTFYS
MEASUREMENT_NOTES: Cl- influx assay in NKCC1-transfected HEK293 cells
Type: cell-based
EXPERIMENTAL_SETUP: HEK293, read-out: Inhibition 10 μM Cl- influx (%)
Response body: numeric value in %, unit text excluded.

query: Sample CCCCNc1cc(C(=O)O)cc(S(N)(=O)=O)c1Oc1ccccc1 [bumetanide, reference compound] — what was its inhibition at 10 µM?
result: 58.8

query: Sample `CNS(=O)(=O)c1cc([N+](=O)[O-])ccc1NCCC(C)(C)C` — what was its inhibition at 10 µM?
result: 17.7

query: Sample `CN(C)S(=O)(=O)c1cc([N+](=O)[O-])ccc1NCCC(C)(C)C` — what was its inhibition at 10 µM?
result: 10

query: Sample `COCCNc1ccc(C(=O)O)cc1S(=O)(=O)N(C)C` — what was its inhibition at 10 µM?
result: 1.4

query: Sample CCCCCCCCNc1ccc([N+](=O)[O-])cc1S(N)(=O)=O [Compound 7, 5-Nitro-2-(octylamino)benzenesulfonamide] — what was its inhibition at 10 µM?
result: 0.3

query: Sample `CCCCNc1ccc(C(=O)O)cc1S(=O)(=O)N(C)C` — what was its inhibition at 10 µM?
result: 2.6

query: Sample `CCCCCCCCNc1ccc(C(=O)O)cc1S(=O)(=O)NC` — what was its inhibition at 10 µM?
result: 16.2

query: Sample `CN(C)S(=O)(=O)c1cc(C(=O)O)ccc1NCCCCCCCC(F)(F)F` — what was its inhibition at 10 µM?
result: 37.1

query: Sample `CCCCCCNc1ccc([N+](=O)[O-])cc1S(=O)(=O)NC` — what was its inhibition at 10 µM?
result: 6.4

query: Sample `CCCCNc1ccc(C(=O)O)cc1S(=O)(=O)NC` — what was its inhibition at 10 µM?
result: 6.4
